Target: human CYP4F2 (Homo sapiens (Human))
Sequence (P78329 5-520): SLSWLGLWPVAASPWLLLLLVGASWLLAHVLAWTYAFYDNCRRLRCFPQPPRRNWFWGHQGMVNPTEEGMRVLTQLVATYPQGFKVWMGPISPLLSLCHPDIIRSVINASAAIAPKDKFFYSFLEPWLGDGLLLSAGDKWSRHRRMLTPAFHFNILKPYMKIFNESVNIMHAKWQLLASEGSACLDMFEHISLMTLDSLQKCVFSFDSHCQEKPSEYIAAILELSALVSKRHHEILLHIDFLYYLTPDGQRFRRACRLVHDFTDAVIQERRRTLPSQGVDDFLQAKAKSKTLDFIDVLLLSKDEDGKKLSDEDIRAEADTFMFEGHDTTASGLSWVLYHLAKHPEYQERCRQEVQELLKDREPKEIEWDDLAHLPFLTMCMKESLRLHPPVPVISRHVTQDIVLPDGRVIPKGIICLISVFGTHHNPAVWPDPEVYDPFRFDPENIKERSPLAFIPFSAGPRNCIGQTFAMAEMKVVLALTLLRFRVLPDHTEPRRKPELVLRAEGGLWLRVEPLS
Test: Inhibition test against 20-HETE producing enzyme CYP4F2 (luciferine derivative, luminescence)
Format: biochemical
Conditions: E. coli membrane fraction expressing human CYP4F2, 2.5 μM luciferine derivative, room temperature 60 minutes
From the text: (1) Inhibition Test for Each Compound of the Present Invention Against 20-HETE Producing Enzymes (CYP4F2 and CYP4A11) […] A: Luminescence value with addition of compound B: Luminescence value without addition of compound and enzyme
pIC50: −log10 of the molar value.
Entries and their pIC50
quantity kind: pIC50

input smiles | experimental value
O=C(c1cccc(=O)[nH]1)N1CCC[C@@H](COc2ccc(-c3ccn[nH]3)nc2)C1 | 5.82
O=C(O)C1(CCCCOc2ccc(-c3ccn[nH]3)nc2)CCCC1 | 5.74
Oc1cc(CCCOc2ccc(-c3ccn[nH]3)nc2)ccc1F | 8.14
O=C(O)c1cccc(CCOc2ccc(-c3ccn[nH]3)nc2)c1 | 5.64
O=C(O)C1(c2cccc(COc3ccc(-c4ccn[nH]4)nc3)c2)CC1 | 4.68
CN(C)C(=O)CCc1cccc(COc2ccc(-c3ccn[nH]3)nc2)c1 | 7.12
O=C(NCc1cc(O)no1)c1cccc(COc2ccc(-c3ccn[nH]3)nc2)c1 | 6.01
CC(=O)N1CCC(O)(c2cccc(COc3ccc(-c4ccn[nH]4)nc3)c2)CC1 | 8.36
OCc1ccc(COc2ccc(-c3ccn[nH]3)nc2)cc1 | 7.29
O=C(O)c1ccc(-c2cccc(COc3ccc(-c4ccn[nH]4)nc3)c2)cc1 | 7.00
CC(C)(CCCOc1ccc(-c2ccn[nH]2)nc1)CC(=O)O | 4.51

====

Target: human CYP4A11 (Homo sapiens (Human), UniProt Q02928)
Sequence (Q02928 5-519): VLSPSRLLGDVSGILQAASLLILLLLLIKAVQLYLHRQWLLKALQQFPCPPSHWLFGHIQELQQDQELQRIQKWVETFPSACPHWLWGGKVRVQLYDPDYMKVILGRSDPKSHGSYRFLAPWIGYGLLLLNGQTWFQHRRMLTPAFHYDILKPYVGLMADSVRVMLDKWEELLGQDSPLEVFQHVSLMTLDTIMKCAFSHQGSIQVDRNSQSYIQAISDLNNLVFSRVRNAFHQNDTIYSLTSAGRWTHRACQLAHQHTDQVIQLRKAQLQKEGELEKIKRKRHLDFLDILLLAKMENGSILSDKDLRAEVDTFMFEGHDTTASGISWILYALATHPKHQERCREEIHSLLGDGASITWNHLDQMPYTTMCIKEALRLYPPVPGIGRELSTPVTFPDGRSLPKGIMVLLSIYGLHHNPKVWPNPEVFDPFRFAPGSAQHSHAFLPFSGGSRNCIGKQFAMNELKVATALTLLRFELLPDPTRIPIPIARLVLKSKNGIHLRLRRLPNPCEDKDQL
Test: Inhibition test against 20-HETE producing enzyme CYP4A11 (luciferine derivative, luminescence)
Assay type: biochemical
Settings: E. coli membrane fraction expressing human CYP4A11, 60 μM luciferine derivative, room temperature 60 minutes
pIC50: −log10 of the molar value.

input smiles | pIC50
O=C(NCCO)c1cccc(COc2ccc(-c3ccn[nH]3)nc2)c1 | 6.46
O=C(CCC1(C(=O)O)CCCC1)N1CCC(CCOc2ccc(-c3ccn[nH]3)nc2)CC1 | 6.41
CCCNC(=O)CCc1cccc(COc2ccc(-c3ccn[nH]3)nc2)c1 | 7.34
O=C(O)c1cnc(-c2cccc(COc3ccc(-c4ccn[nH]4)nc3)c2)cn1 | 7.66
O=C(O)[C@H]1C[C@](O)(c2cccc(COc3ccc(-c4ccn[nH]4)nc3)c2)C1 | 7.21

====

Molecular target: human CYP4A11 (Homo sapiens (Human), UniProt Q02928)
Assay: Inhibition test against 20-HETE producing enzyme CYP4A11 (luciferine derivative, luminescence)
Format: biochemical
Conditions: E. coli membrane fraction expressing human CYP4A11, 60 μM luciferine derivative, room temperature 60 minutes
pIC50: −log10 of the molar value.
quantity kind: pIC50

compound | experimental value
NS(=O)(=O)CCCCCOc1ccc(-c2ccn[nH]2)nc1 [Example 11-4] | 5.35
O=C(O)CCC12CCC(COc3ccc(-c4ccn[nH]4)nc3)(CC1)CC2 [Example 2-7] | 7.46
CC(C)(O)c1cccc(COc2ccc(-c3ccn[nH]3)nc2)c1 [Example 27-1] | 7.36
O=C(O)C1(F)CCN(S(=O)(=O)c2cccc(COc3ccc(-c4ccn[nH]4)nc3)c2)C1 (stereo not drawn) [Example 22-11] | 7.55
O=C(Cc1cccc(COc2ccc(-c3ccn[nH]3)nc2)c1)NCCO [Example 42-7] | 6.12
O=C(O)C1(C(=O)NCCCCCCOc2ccc(-c3ccn[nH]3)nc2)CCCC1 [Example 3-9] | 6.62
O=C(O)c1ccc(-c2cccc(COc3ccc(-c4ccn[nH]4)nc3)c2)cc1 [Example 31-2] | 8.01
O=C(O)c1ccccc1CCOc1ccc(-c2ccn[nH]2)nc1 [Example 1-7] | 5.62
O=C(O)CCCc1cccc(CCCOc2ccc(-c3ccn[nH]3)nc2)c1 [Example 30-4] | 6.85
O=C(O)C1CC1c1cccc(COc2ccc(-c3ccn[nH]3)nc2)c1 (single isomer, unassigned) [Example 26-1] | 7.70
CS(=O)(=O)NCC12CC(COc3ccc(-c4ccn[nH]4)nc3)(C1)C2 [Example 58-1] | 6.24
CNC(=O)c1cccc(COc2ccc(-c3ccn[nH]3)nc2)c1 [Example 42-1] | 6.38
O=C(O)c1cnc(-c2cccc(COc3ccc(-c4ccn[nH]4)nc3)c2)nc1 [Example 22-5] | 6.92
Oc1cc(CCCCOc2ccc(-c3ccn[nH]3)nc2)on1 [Example 64-1] | 7.39
O=C(O)C12CC(COc3ccc(-c4ccn[nH]4)nc3)(C1)C2 [Example 8-17] | 6.28
CC(=O)N1CCN(CCOc2ccc(-c3ccn[nH]3)cc2)CC1 [Compound A, reference compound] | 4.96
O=C(O)CCCc1ccccc1COc1ccc(-c2ccn[nH]2)nc1 [Example 1-11] | 7.62
Oc1cc(CCCOc2ccc(-c3ccn[nH]3)nc2)ccc1F [Example 11-3] | 6.57
CC(C)(CCNC(=O)N1CCC[C@@H](COc2ccc(-c3ccn[nH]3)nc2)C1)C(=O)O [Example 55-1] | 6.70
O=C(O)c1ccc(COc2ccc(-c3ccn[nH]3)nc2)cc1 [Example 1-1] | 7.43
O=C(O)c1cc(-c2cccc(COc3ccc(-c4ccn[nH]4)nc3)c2)ccn1 [Example 8-11] | 7.85
O=C(O)C1(OCCCCCCCCOc2ccc(-c3ccn[nH]3)nc2)CCOCC1 [Example 68-1] | 6.21
CC(C)(OCCCOCCCCOc1ccc(-c2ccn[nH]2)nc1)C(=O)O [Example 9-3] | 5.85
O=C(O)c1cccc(CC(=O)N2CCC[C@@H](COc3ccc(-c4ccn[nH]4)nc3)C2)c1 [Example 46-5] | 6.55
O=C(CCC1(C(=O)O)CCCC1)N1CCCC(CCOc2ccc(-c3ccn[nH]3)nc2)C1 (stereo not drawn) [Example 3-4] | 5.74
O=C1NC(=O)C(CCCCOc2ccc(-c3ccn[nH]3)nc2)O1 (stereo not drawn) [Example 63-1] | 7.51
O=C(O)c1ccc(-c2cccc(COc3ccc(-c4ccn[nH]4)nc3)c2)cn1 [Example 31-3] | 7.60

Source listed as patent US11365192B2.
